EC50 (µM), activation of Tango CMKLR1-bla U2OS cells overview
Molecular target: T1, human Chemokine like receptor 1 (human, UniProt Q99788 1-373)
T1 sequence (looked up): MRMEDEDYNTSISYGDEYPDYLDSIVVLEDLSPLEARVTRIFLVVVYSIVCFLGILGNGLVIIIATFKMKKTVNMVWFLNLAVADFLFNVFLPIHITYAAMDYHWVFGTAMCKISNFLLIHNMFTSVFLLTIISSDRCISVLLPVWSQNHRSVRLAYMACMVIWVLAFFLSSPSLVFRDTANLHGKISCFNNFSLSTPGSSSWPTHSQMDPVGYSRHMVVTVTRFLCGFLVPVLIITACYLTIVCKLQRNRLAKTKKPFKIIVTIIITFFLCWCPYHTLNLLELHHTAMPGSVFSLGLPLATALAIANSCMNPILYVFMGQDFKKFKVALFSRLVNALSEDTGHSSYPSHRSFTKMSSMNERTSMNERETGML
Experiment: cell-based or functional assay
Square brackets hold non-standard residues; d marks the D form. Ends that are not written are not given here. * marks the point of attachment. Hydrocinnamoyl = O=C(CCc1ccccc1)*; Tic = O=C(O)[C@@H]1Cc2ccccc2CN1; NMeL = CN[C@@H](CC(C)C)C(=O)O; NMeV = CN[C@H](C(=O)O)C(C)C; NMeS = CN[C@@H](CO)C(=O)O
Lab note: write values as number then unit, every time.

Consider the worked cases shown below.
[dY]F[NMeL]P[dS]QF[dA][Tic][NMeS]-OH (N-terminus assumed; SMILES CC(C)C[C@@H](C(=O)N1CCC[C@H]1C(=O)N[C@H](CO)C(=O)N[C@@H](CCC(N)=O)C(=O)N[C@@H](Cc1ccccc1)C(=O)N[C@H](C)C(=O)N1Cc2ccccc2C[C@H]1C(=O)N(C)[C@@H](CO)C(=O)O)N(C)C(=O)[C@H](Cc1ccccc1)NC(=O)[C@H](N)Cc1ccc(O)cc1) [YW-166] = 0.005 µM
[dY]F[NMeV]P[dS]QF[dA][Tic]S-OH [YW-99] = 12 µM
Hydrocinnamoyl-[dY]FLP[dS]QF[dA][Tic]S-OH (SMILES CC(C)C[C@H](NC(=O)[C@H](Cc1ccccc1)NC(=O)[C@@H](Cc1ccc(O)cc1)NC(=O)CCc1ccccc1)C(=O)N1CCC[C@H]1C(=O)N[C@H](CO)C(=O)N[C@@H](CCC(N)=O)C(=O)N[C@@H](Cc1ccccc1)C(=O)N[C@H](C)C(=O)N1Cc2ccccc2C[C@H]1C(=O)N[C@@H](CO)C(=O)O) [YW-71] = 0.031 µM

Attention now shifts to the item below.
# input // EC50 (µM), activation of Tango CMKLR1-bla U2OS cells lookup, key: {5‑phenylpentanoyl}-[dY]FLP[dS]QF[dA][Tic]S-OH [YW-76]
# output 0.043 µM

Source of measurements: patent US20210403506A1
